Cited source: patent US20030162818A1

biological target: acetyl-CoA carboxylase (ACC) (Rattus norvegicus); construct: subjected to decapitation and bloodletting under ether anesthesia to quickly take out the liver; from tissue; host or cells: rat liver (male SD rat, fasted then fed a high-sucrose feed); test: Measurement of ACC inhibition activity (14C-bicarbonate incorporation, ACC purified from rat liver); assay type: biochemical; details: 5.6 × 10^−6 M compound; ACC purified from SD rat liver
measured-attribute: inhibition at 5.6 µM (%)

Look over these answered cases.
smi=O=C(Nc1ccccc1S(=O)(=O)NC(=O)c1ccccc1)c1cccc(OCc2ccccc2)c1 numeric_value=60.7
smi=CCCCCCCCCC(=O)NS(=O)(=O)c1ccccc1NC(=O)c1cccc(OCc2ccc(OC)cc2)c1 numeric_value=81.6
smi=CCCCCCCCCC(=O)NS(=O)(=O)c1ccccc1NC(=O)c1ccc([N+](=O)[O-])c(OCc2ccccc2)c1 numeric_value=79.9
smi=CCCCCC(=O)NS(=O)(=O)c1ccccc1NC(=O)c1cccc(OCc2ccc(C(F)(F)F)cc2)c1 numeric_value=52.3
smi=CCCCCCCCCC(=O)NS(=O)(=O)c1ccccc1NC(=O)c1cccc(OCc2ccc(C(F)(F)F)cc2)c1 numeric_value=81.3

1. C/C=C/C=C/C(=O)NS(=O)(=O)c1ccccc1NC(=O)c1ccc(C#Cc2ccccc2)cc1
2. CCCCCCCCCC(=O)NS(=O)(=O)c1ccccc1NC(=O)c1cccc(OCc2ccc([N+](=O)[O-])cc2)c1
## Task Please let me know which one, 1 or 2 , has a lower measured inhibition at 5.6 µM value. Respond with the label that goes with your answer.
## Result 1
